B1: Double-stranded RNA-binding protein Staufen homolog 1, residues 183 to 249; numbered along this chain, O95793 (parent)
chain: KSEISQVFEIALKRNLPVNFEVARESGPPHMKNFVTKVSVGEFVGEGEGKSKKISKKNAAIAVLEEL

Variants of: B1
Test: abundance fitness (aPCA) (normalised: wild type 0, dead -1); higher = more abundant; growth selection in yeast, the domain comes from the species named
Settings: Homo sapiens
Kind request: treat -0.2 as inclusive, so abundance fitness at -0.2 or higher is true, anything lower is false.

M31G: true
E3Y: true
K1N: true
S51W: false
V63G: false

# input Is reported abundance fitness greater than or equal to -0.2 here: I54C
# output false

# input Record: V35Y
# output true

# input Record: E65D
# output true

# input Record: R14K
# output false

# input Record: G27W
# output false

# input Record: E66G
# output true

Source of measurements: the Human Domainome abundance scans (Beltran et al. 2025)
